All figures here come from ChEMBL document CHEMBL4808175.

Please provide measured IC50 for the entries that follow.
target: Dual 3',5'-cyclic-AMP and -GMP phosphodiesterase 11A (Homo sapiens, UniProt Q9HCR9); assay: Inhibition of recombinant GST-tagged full length PDE11A4 (unknown origin) expressed in baculovirus infected Sf9 insect cells using TAMRA-cGMP as substrate incubated for 1.5 hrs by IMAP-FP assay
Sequence (Q9HCR9 whole entry): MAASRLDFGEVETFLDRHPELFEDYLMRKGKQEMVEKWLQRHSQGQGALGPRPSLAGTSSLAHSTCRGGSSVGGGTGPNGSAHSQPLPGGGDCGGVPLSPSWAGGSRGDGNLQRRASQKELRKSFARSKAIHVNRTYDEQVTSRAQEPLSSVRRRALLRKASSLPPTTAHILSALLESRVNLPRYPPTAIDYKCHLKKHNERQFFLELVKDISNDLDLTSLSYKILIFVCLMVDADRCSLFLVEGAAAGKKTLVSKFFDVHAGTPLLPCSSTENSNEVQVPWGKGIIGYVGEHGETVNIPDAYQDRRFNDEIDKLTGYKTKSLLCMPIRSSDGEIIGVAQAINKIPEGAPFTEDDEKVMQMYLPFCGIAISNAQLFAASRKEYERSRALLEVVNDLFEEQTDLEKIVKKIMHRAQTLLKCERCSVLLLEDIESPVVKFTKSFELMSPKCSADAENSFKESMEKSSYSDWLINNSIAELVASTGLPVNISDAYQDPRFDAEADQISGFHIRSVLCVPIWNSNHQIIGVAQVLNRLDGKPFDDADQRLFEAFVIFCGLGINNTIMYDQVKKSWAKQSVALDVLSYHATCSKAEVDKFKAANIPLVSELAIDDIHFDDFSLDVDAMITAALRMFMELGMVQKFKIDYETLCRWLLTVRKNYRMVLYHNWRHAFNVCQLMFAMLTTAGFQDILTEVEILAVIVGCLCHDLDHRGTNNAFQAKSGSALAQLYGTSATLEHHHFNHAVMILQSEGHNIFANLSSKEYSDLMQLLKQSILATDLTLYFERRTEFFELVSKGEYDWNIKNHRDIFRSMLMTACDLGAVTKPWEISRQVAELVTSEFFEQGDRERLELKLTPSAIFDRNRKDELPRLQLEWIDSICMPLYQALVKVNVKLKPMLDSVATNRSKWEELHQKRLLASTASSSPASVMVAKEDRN
Numbers only, in µM.

molecule	IC50 (µM)
COc1ccc(C2CC(c3ccccc3C)=NN2c2ccc(C(=O)N3CCN(C)CC3)cc2)cc1 (stereo not given)	11.4

Input line: Fill blank: measured IC50 of the molecule COc1ccc(C2CC(c3ccccc3C)=NN2c2ccc(C(=O)NCCO)cc2)cc1 (stereo not given) is ____.
Output line: 13

====

target: cGMP-specific 3',5'-cyclic phosphodiesterase (Homo sapiens); test: Inhibition of PDE5A in HEK293 cells stably transfected with cGMP biosensor assessed as increase in SNP-induced intracellular cGMP level measured after 90 mins by luminescence assay
property: EC50 (µM)
Numbers only, in µM.

compound	assayed.system	units	EC50
COc1ccc(C2CC(c3ccccc3C)=NN2c2ccc(C(=O)N3CCN(C)CC3)cc2)cc1F (centres undefined)	cGMP-specific 3',5'-cyclic phosphodiesterase (Homo sapiens)	µM	13.8
COc1ccc(C2CC(c3ccccc3C)=NN2c2ccc(C(=O)N3CCN(C)CC3)cc2)cc1 (centres undefined)	cGMP-specific 3',5'-cyclic phosphodiesterase (Homo sapiens)	µM	18.4
COc1c(F)cc(C2CC(C(C)(C)C)=NN2c2ccc(C(=O)N3CCN(C)CC3)cc2)cc1F (centres undefined)	cGMP-specific 3',5'-cyclic phosphodiesterase (Homo sapiens)	µM	6.7

Input line: Fill blank: measured EC50 of the compound COc1ccc(C2CC(C(C)(C)C)=NN2c2ccc(C(=O)N3CCN(C)CC3)cc2)c(F)c1F (centres undefined) is ____.
Output line: 4.1

====

biological target: Dual 3',5'-cyclic-AMP and -GMP phosphodiesterase 11A (Homo sapiens, UniProt Q9HCR9); assay: Inhibition of recombinant GST-tagged full length PDE11A4 (unknown origin) expressed in baculovirus infected Sf9 insect cells using FAM-cAMP as substrate incubated for 1.5 hrs by IMAP-FP assay
Please provide measured IC50 for the entries that follow.

Would you mind listing IC50 for each of the following compounds?
1. COc1c(F)cc(C2CC(C(C)(C)C)=NN2c2ccc(C(=O)N3CCN(C)CC3)cc2)cc1F (stereo not drawn)
2. COc1ccc(C2CC(c3ccccc3C)=NN2c2ccc(C(=O)N3CCN(C)CC3)cc2)cc1F (stereo not drawn)

Output line:
1. > 10 µM
2. > 10 µM

Input line: Fill blank: measured IC50 of the compound COc1ccc(C2CC(C(C)(C)C)=NN2c2ccc(C(=O)N3CCN(C)CC3)cc2)c(F)c1F (stereo not drawn) is ____.
Output line: > 10 µM

====

molecular target: Dual 3',5'-cyclic-AMP and -GMP phosphodiesterase 11A (Homo sapiens, UniProt Q9HCR9); test: Inhibition of recombinant GST-tagged full length PDE11A4 (unknown origin) expressed in baculovirus infected Sf9 insect cells using TAMRA-cGMP as substrate incubated for 1.5 hrs by IMAP-FP assay
property: IC50

compound	IC50
COc1ccc(C2CC(c3ccccc3C)=NN2c2ccc(C(=O)N3CCN(C)CC3)cc2)cc1F (stereo not drawn)	> 10 µM
COc1ccc(C2CC(C(C)(C)C)=NN2c2ccc(C(=O)N3CCN(C)CC3)cc2)c(F)c1F (stereo not drawn)	> 10 µM

Input line: Recall the recorded IC50 for COc1c(F)cc(C2CC(C(C)(C)C)=NN2c2ccc(C(=O)N3CCN(C)CC3)cc2)cc1F (stereo not drawn) with Dual 3',5'-cyclic-AMP and -GMP phosphodiesterase 11A (Homo sapiens, UniProt Q9HCR9) and state it.
Output line: > 10 µM
